B1: mNb‐WT [not stated] / recombinant VEGF‐A165 protein [not stated] (parent complex)
chain 1: MDVQLVESGGGLVQPGGSLRLSCAASGRTFSSYSMGWFRQAPGKEREFVVAISKGGYKYDAVSLEGRFTISRDNAKNTVYLQINSLRPEDTAVYYCASSRAYGSSRLRLADTYEYWGQGTLVTVSS
chain 2: APMAEGGGQNHHEVVKFMDVYQRSYCHPIETLVDIFQEYPDEIEYIFKPSCVPLMRCGGCCNDEGLECVPTEESNITMQIMRIKPHQGQHIGEMSFLQHNKCECRPKKDRARQENPCGPCSERRKHLFVQDPQTCKCSCKNTDSRCKARQLELNERTCRCDKPRR

- Variants of: B1
- Protocol Description: ELISA; parent: 0.73 nM
Readout Name: EC50 (nM)

>  <Variant Key>
chain 1 K44A

>  <Measurement Units>
nM

>  <EC50>
0.62

$$$$
>  <Variant Key>
chain 1 Q118N

>  <Measurement Units>
nM

>  <EC50>
0.77

$$$$
>  <Variant Key>
chain 1 S8A

>  <Measurement Units>
nM

>  <EC50>
0.82

$$$$
>  <Variant Key>
chain 1 Q14N

>  <Measurement Units>
nM

>  <EC50>
0.77

$$$$
>  <Variant Key>
chain 1 Y95F

>  <Measurement Units>
nM

>  <EC50>
0.8

$$$$
>  <Variant Key>
chain 1 K44A, chain 1 E45A

>  <Measurement Units>
nM

>  <EC50>
0.91

$$$$
>  <Variant Key>
chain 1 E45A

>  <Measurement Units>
nM

>  <EC50>
0.79

$$$$
